experimentalTarget: T1, CRBN, Q96SW2;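 note: pooled lentiviral library of zinc finger degron-EGFP fusions in mCherry-positive Jurkat cells, FACS-sorted after compound exposure, with degron abundance counted by next-generation sequencing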
T1 chain: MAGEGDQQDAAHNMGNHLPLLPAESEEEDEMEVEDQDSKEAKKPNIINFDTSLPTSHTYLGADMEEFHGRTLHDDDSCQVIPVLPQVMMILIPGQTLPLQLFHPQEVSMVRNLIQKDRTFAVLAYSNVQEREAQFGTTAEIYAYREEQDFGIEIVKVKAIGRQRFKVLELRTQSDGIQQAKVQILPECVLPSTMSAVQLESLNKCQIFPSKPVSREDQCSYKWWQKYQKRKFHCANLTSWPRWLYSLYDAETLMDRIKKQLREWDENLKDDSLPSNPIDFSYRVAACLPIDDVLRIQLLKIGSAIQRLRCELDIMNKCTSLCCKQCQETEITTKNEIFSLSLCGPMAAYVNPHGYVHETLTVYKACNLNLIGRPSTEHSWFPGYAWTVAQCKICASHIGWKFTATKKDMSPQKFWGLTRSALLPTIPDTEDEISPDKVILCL
testProtocol: log2 fold change of degron read counts, EGFP-low vs EGFP+ sorted cells (limma voom), compound-induced degradation; higher = more compound-induced degradation of the degron-EGFP fusion; degrons are variants of IKZF1/3 zinc finger 2; compound dose not given here
testSettings: Jurkat; 18 h; compound: compound 19 (5-tert-butyl-thalidomide)
In all, about 8,300 sequences were measured (“log2 fold change of degron read counts, EGFP-low vs EGFP+ sorted cells (limma voom), compound-induced degradation”: median about -1.1, highest 2% from about 3.2 on). Shown is part of a subset that was picked to be rich in the highest values.
resultType: log2 fold change of degron read counts
Answers are plain numbers.

FFCEVCGAQFTQKGNLLRHIKL [46F_47F_49E_50V_52G_53A_54Q_55F_67L_, Q9UKT9]; 3.36
FKCNQCGAVFTQKGNLLRHIKL [46F_47K_49N_50Q_52G_53A_54V_55F_67L_, Q9UKT9]; -2.58
FECNICGAIFTQKGNLLRHIKL [46F_47E_49N_50I_52G_53A_54I_55F_67L_, Q9UKT9]; -2.22
LWCNQCGFLCTQKGNLLRHIKL [46L_47W_49N_50Q_52G_53F_54L_55C_67L_, Q9UKT9]; -0.0173
FSCEICGAAFTQKGNLLRHIKL [46F_47S_49E_50I_52G_53A_54A_55F_67L_, Q9UKT9]; 3.56
FGCEVCGAQFTQKGNLLRHIKL [46F_47G_49E_50V_52G_53A_54Q_55F_67L_, Q9UKT9]; 3.18

Fill in log2 fold change of degron read counts for each of the 5 sequences listed.
1. FFCNICGASFTQKGNLLRHIKL [46F_47F_49N_50I_52G_53A_54S_55F_67L_, Q9UKT9]
2. LCCNQCGFACTQKGNLLRHIKL [46L_47C_49N_50Q_52G_53F_54A_55C_67L_, Q9UKT9]
3. FKCDICGASFTQKGNLLRHIKL [46F_47K_49D_50I_52G_53A_54S_55F_67L_, Q9UKT9]
4. LQCNQCGFHCTQKGNLLRHIKL [46L_47Q_49N_50Q_52G_53F_54H_55C_67L_, Q9UKT9]
5. FTCPICGASFTQKGNLLRHIKL [46F_47T_49P_50I_52G_53A_54S_55F_67L_, Q9UKT9]

Result:
1: 2.16; 2: -1.66; 3: -0.288; 4: -2.12; 5: 2.17

Fill in log2 fold change of degron read counts for each of the 4 sequences listed.
1. FRCPICGRMFTQKGNLLRHIKL [46F_47R_49P_50I_52G_53R_54M_55F_67L_, Q9UKT9]
2. FTCNQCGRMFTQKGNLLRHIKL [46F_47T_49N_50Q_52G_53R_54M_55F_67L_, Q9UKT9]
3. FFCPICGASFTQKGNLLRHIKL [46F_47F_49P_50I_52G_53A_54S_55F_67L_, Q9UKT9]
4. FACNICGACFTQKGNLLRHIKL [46F_47A_49N_50I_52G_53A_54C_55F_67L_, Q9UKT9]

Result:
1: -1.98; 2: -2.42; 3: 3.26; 4: 2.13

Fill in log2 fold change of degron read counts for each of the 5 sequences listed.
1. FICEICGRAFTQKGNLLRHIKL [46F_47I_49E_50I_52G_53R_54A_55F_67L_, Q9UKT9]
2. LRCNQCGFFCTQKGNLLRHIKL [46L_47R_49N_50Q_52G_53F_54F_55C_67L_, Q9UKT9]
3. FCCEICGAAFTQKGNLLRHIKL [46F_47C_49E_50I_52G_53A_54A_55F_67L_, Q9UKT9]
4. FNCDVCGAFFTQKGNLLRHIKL [46F_47N_49D_50V_52G_53A_54F_55F_67L_, Q9UKT9]
5. FNCPICGAKFTQKGNLLRHIKL [46F_47N_49P_50I_52G_53A_54K_55F_67L_, Q9UKT9]

Result:
-2.83
-1.45
3.72
-1.57
2.07

Fill in log2 fold change of degron read counts for each of the 3 sequences listed.
1. FHCPICGASFTQKGNLLRHIKL [46F_47H_49P_50I_52G_53A_54S_55F_67L_, Q9UKT9]
2. FCCPICGHNFTQKGNLLRHIKL [46F_47C_49P_50I_52G_53H_54N_55F_67L_, Q9UKT9]
3. FKCEICGAAFTQKGNLLRHIKL [46F_47K_49E_50I_52G_53A_54A_55F_67L_, Q9UKT9]

Result:
1. 2.77
2. -2.22
3. 2.15

Fill in log2 fold change of degron read counts for each of the 5 sequences listed.
1. FVCEQCGAGFTQKGNLLRHIKL [46F_47V_49E_50Q_52G_53A_54G_55F_67L_, Q9UKT9]
2. FQCPICGRLFTQKGNLLRHIKL [46F_47Q_49P_50I_52G_53R_54L_55F_67L_, Q9UKT9]
3. FNCSVCGHVFTQKGNLLRHIKL [46F_47N_49S_50V_52G_53H_54V_55F_67L_, Q9UKT9]
4. FMCPICGAKFTQKGNLLRHIKL [46F_47M_49P_50I_52G_53A_54K_55F_67L_, Q9UKT9]
5. LMCNQCGFPCTQKGNLLRHIKL [46L_47M_49N_50Q_52G_53F_54P_55C_67L_, Q9UKT9]

Result:
[-1.4, -1.51, -2.33, -0.0561, -2.18]

Sample FTCEVCGAQFTQKGNLLRHIKL [46F_47T_49E_50V_52G_53A_54Q_55F_67L_, Q9UKT9] ; log2 fold change of degron read counts observed: -0.192
